# System: AS120
# Method Summary: qHTS profiling for inhibitors of Plasmodium falciparum proliferation (AID 504749); also: nearly all actives have a fitted effect of over 60% in size
# Condition Label: P. falciparum in erythrocytes, SYBR Green DNA, 72 h; series mostly up to 28.7 µM
Inconclusive results are not listed. Calls of active or inactive are those of the source. Calls follow the shape of the dose curve; as a rule, active = well fitted inhibition curve with a large enough effect; inconclusive = small, poorly fitted or top-dose-only effect; inactive = flat fitted curve, though single readings scatter.
Your answer must be one of the following: label 1 = active, label 0 = inactive

Completed entries (count: 5):
- Molecule: "COc1ccccc1N1CCN(CC(O)COc2cccc3ccccc23)CC1 (centres undefined)"
  Test Target: "AS120"
  Assigned Label: "label 0"
- Molecule: "CC(C)NCC(O)c1ccc(O)c(O)c1 (centres undefined)"
  Test Target: "AS120"
  Assigned Label: "label 0"
- Molecule: "CN(CCOc1ccc(NS(C)(=O)=O)cc1)CCc1ccc(NS(C)(=O)=O)cc1"
  Test Target: "AS120"
  Assigned Label: "label 0"
- Molecule: "CCCCc1oc2ccccc2c1C(=O)c1cc(I)c(OCCN(CC)CC)c(I)c1"
  Test Target: "AS120"
  Assigned Label: "label 1"
- Molecule: "CC(C)(Oc1ccc(C2CC2(Cl)Cl)cc1)C(=O)O (centres undefined)"
  Test Target: "AS120"
  Assigned Label: "label 0"

Please find the next molecule below.
Record lookup: outcome of this test for NC12CC3CC(CC(C3)C1)C2 ?
label 0

----------
# Test Target: Alpha-galactosidase A (Homo sapiens)
# Method Summary: Counterscreen for Glucocerebrosidase Inhibitors: qHTS Assay for Human alpha-Galactosidase at pH 4.5 (AID 992); also: 0% is about no effect
# Condition Label: purified enzyme, fluorogenic substrate; series mostly up to 76.9 µM
Activity calls are given as the source filed them. Calls follow the shape of the dose curve; as a rule, active = well fitted curve in the direction sought with a large enough effect; inactive = no such curve, though single readings can be large or run the other way.
Measured Metric: outcome

Solved cases (4 shown):
- Molecule: "Cc1cc(C(C)(C)C)c(O)c(C)c1CC1=NCCN1"
  Test Target: "Alpha-galactosidase A (Homo sapiens)"
  outcome: "inactive"
- Molecule: "O=C(C1CCCCC1)N1CC(=O)N2CCc3ccccc3C2C1 (stereo not given)"
  Test Target: "Alpha-galactosidase A (Homo sapiens)"
  outcome: "inactive"
- Molecule: "Nc1nc2c(ncn2COC(CO)CO)c(=O)[nH]1"
  Test Target: "Alpha-galactosidase A (Homo sapiens)"
  outcome: "inactive"
- Molecule: "Nc1ccn([C@H]2CC[C@@H](CO)O2)c(=O)n1"
  Test Target: "Alpha-galactosidase A (Homo sapiens)"
  outcome: "inactive"

Okay, next one:
# molecule O=C1c2c(O)ccc(O)c2C(=O)c2c(NCCNCCO)ccc(NCCNCCO)c21 ; its outcome = inactive

----------
# Method Summary: Primary qHTS for inhibitors of nuclear receptor binding SET domain protein 2 (NSD2) in an RCH-ACV wild type WT cells (2C) (AID 1645877); also: nearly all actives have a fitted effect of over 70% in size
# Condition Label: RCH-ACV (leukaemia line) NSD2 WT (2C) viability, CellTiter-Glo, 72 h; series mostly up to 44.9 µM
Inconclusive results are not listed. Activity calls are given as the source filed them. The call rests on the fitted dose curve; in most records, active means well fitted inhibition curve with a large enough effect; inconclusive means small, poorly fitted or top-dose-only effect; inactive means no such curve, though single readings can be large or run the other way.
Your answer must be one of the following: True = active, False = inactive

Completed entries (count: 6):
- Molecule: "NC(=O)OCC(COC(N)=O)c1ccccc1"
  Assigned Label: "False"
- Molecule: "Nc1c2c(nc3ccccc13)CCCC2"
  Assigned Label: "False"
- Molecule: "CC1COc2c(N3CCN(C)CC3)c(F)cc3c(=O)c(C(=O)O)cn1c23 (configuration not stated)"
  Assigned Label: "False"
- Molecule: "Cn1c(=O)c2[nH]cnc2n(C)c1=O"
  Assigned Label: "False"
- Molecule: "CCN1CCCC1CNC(=O)c1cc(S(=O)(=O)CC)c(N)cc1OC (configuration not stated)"
  Assigned Label: "False"
- Molecule: "COc1cc2nc(N(C)CCCNC(=O)C3CCCO3)nc(N)c2cc1OC (configuration not stated)"
  Assigned Label: "False"

Record lookup: outcome of this test for NCCCCCC(=O)O ?
False

Record lookup: outcome of this test for CCC1(c2ccccc2)C(=O)NCNC1=O ?
False

Record lookup: outcome of this test for CC(C)(C)C(=O)Oc1ccc(S(=O)(=O)Nc2ccccc2C(=O)NCC(=O)O)cc1 ?
False

Record lookup: outcome of this test for O=C1c2c(O)ccc(O)c2C(=O)c2c(NCCNCCO)ccc(NCCNCCO)c21 ?
True

Record lookup: outcome of this test for CN(C)CCOC(c1ccccc1)c1ccccc1 ?
False

Record lookup: outcome of this test for O=C(C1CCCCC1)N1CC(=O)N2CCc3ccccc3C2C1 (configuration not stated) ?
False
